system: Saccharomyces cerevisiae; test: protein stability index of tFT-peptide fusion in wild type (PSI (0-1 scale)); higher = more stable (slower turnover); conditions: genetic background: wild type
Categories are defined by ranges of protein stability index, namely bucket A: < 0.09; bucket B: ≥ 0.09 and < 0.3; bucket C: ≥ 0.3

sequence-record	measurement-target	assigned-label
PSLAASFWTVVG	Saccharomyces cerevisiae	bucket C
RLIQPLPVQFLV	Saccharomyces cerevisiae	bucket A
CLVSLPCLLFFR	Saccharomyces cerevisiae	bucket A
RLIQILPVQFLN	Saccharomyces cerevisiae	bucket A
KKHKKGQKQKINY	Saccharomyces cerevisiae	bucket C
PDKDNHLIKLLN	Saccharomyces cerevisiae	bucket B
PSLAPSFWRVVG	Saccharomyces cerevisiae	bucket B
LVVYLVCVACIN	Saccharomyces cerevisiae	bucket A
RKTRLDAIYFRI	Saccharomyces cerevisiae	bucket C
FSMRWVFRYWVN	Saccharomyces cerevisiae	bucket A
GLYMCSMGCWFR	Saccharomyces cerevisiae	bucket C
VRGAVGGWDLVG	Saccharomyces cerevisiae	bucket C
PDKRNHLIKLLNC	Saccharomyces cerevisiae	bucket B
KKHKKGQKRKIN	Saccharomyces cerevisiae	bucket B

----------
system: Saccharomyces cerevisiae; test: protein stability index of tFT-peptide fusion (C-terminal peptide) (PSI (0-1 scale)); higher = more stable (slower turnover); conditions: genetic background: doa10 deletion; temperature: 30 C
Binary call on protein stability index: MET from 0.2 upward, NOT MET beneath that.

sequence-record	assigned-label
VFCSVGVSLFFG	MET
RSLSWCTKRRCC	MET
YTCFLFLLRCMT	NOT MET
PPLPPPPPHPPP	MET
RWSEHGFLVFLS	NOT MET
FLAPPFLPPPPA	MET
WSCFLLLLSLSL	MET
IFFYPFLIFCFV	MET
PPPRSLSPPLLS	MET
SVMTFVFFISAF	MET
YFWWLWMSFWVG	MET
VLVSYAIVILYL	NOT MET
VALAVRVVVCGA	NOT MET
GVVVGVLLVCGW	MET
FEVLINIWFLSA	NOT MET
ALLVLTVSYVFS	NOT MET
IFAWPFSATIPW	MET
VPSPWVFSLFLH	NOT MET
LLHQSVHSHIPP	MET
PPPPPPLPSPSS	MET
YPFIPLIVCGFF	MET
RIIDRVSRLIML	MET
FVSVAGFIVVVV	MET
LFWCCVGLSVWR	MET
SWRRCLSSIPVA	MET
PRFLRWLFSLLI	MET
VFVGWVLCVVGG	NOT MET
WHLLRFETQMFC	NOT MET
RKFRAWIRITRT	MET
RRPVHTHTSVSP	MET
TLCFRLSWVLLV	NOT MET
YYFCMYFKVTLC	NOT MET
VSPATFLFYFFF	MET
RLCKGQKYTKIN	NOT MET
QIDYSVYIFALG	MET
GRRPVVDFLPCL	MET
NDKGKKTKIKIV	NOT MET
FLVPLSPMLLSA	MET
VQWPLLVVGCMG	MET

----------
tested on: Saccharomyces cerevisiae; experiment: protein stability index of tFT-peptide fusion (C-terminal peptide) (PSI (0-1 scale)); higher = more stable (slower turnover); conditions: genetic background: wild type; temperature: 30 C
Listed here are sequences together with their documented protein stability index.

sequence-record	protein stability index
GGCGNVGVGVSV	0.694
ALLVLTVSYVFS	0.167
RTKIEIKNRENI	0.774
LSFLSLIFSICY	0.461
VVDGSILTIRCL	0.623
DVLLKVDATKTP	0.685
NRVPKKPAHLQQ	0.647
SRPLPPPLPPPP	0.628
MLLLWRVPQCGE	0.638
GNTQSIEQALLV	0.752
VVGAWGRGGCGG	0.633
LLPSLLRPQPPA	0.699
KIKEKNEKRELI	0.686
CRLPLSTIRARP	0.724
KQKRQLPRKNET	0.639
SPLGAHPTRIVF	0.692
VASITEIRKKGR	0.629
PVRIQTFLFCVP	0.595
SGVHFFLRTGAL	0.692
